Would you mind telling me the reported ΔmA610 (3 min) at pH 5.5 of each entry?
# Tested on: laccase
# TEST_SUMMARY: Chicago Blue assay: mediator-enhanced laccase-catalyzed bleaching of Chicago Blue in solution
# Type: biochemical, Aspergillus
# TEST_CONTEXT: decrease in absorbance of Chicago Blue at 610 nm after 3 min, pH 5.5, laccase, mediator (0.1 umole/ml)
Answers are plain numbers.

For every listed record, write down its ΔmA610 (3 min) at pH 5.5.
1. O=C1O[C@H]([C@@H](O)CO)C(O)=C1O
2. O=C(O)c1ccccc1O
3. NC(N)=O
4. O=C(O)c1cccnc1

OUTPUT:
[6, 11, 1, 0]
